test system: Immunoglobulin E (IgE), human myeloma (human); test: NECEEM (CE-LIF); conditions: 25 nM DNA and 25 nM IgE; 10 mM Tris-HCl pH 9.0, no added salt in CE-LIF/NECEEM; temperature not stated
measured metric: Kd (nM)
One number for each entry, in nM.

Problem: Reported Kd for GACTACCCGGGTATCTAATCCGCGTATGGTCATGGATGTGCATACACCCCGCCTATCAGAACTGCTGCCGCCCGTAGG [S1] : what is it?
Result: 0.83

---

tested on: Immunoglobulin E (IgE), human myeloma (human); assay: NECEEM (CE-LIF); details: 25 nM DNA and 25 nM IgE; alternative from sharp peak, not adopted; 10 mM Tris-HCl pH 9.0, no added salt in CE-LIF/NECEEM; temperature not stated
measured metric: Kd

Problem: Reported Kd for GACTACCCGGGTATCTAATCCGACCATTTTTCGTCTCCTTTGTACGAGCAGTGTGCTCGACCTGCCGCCCGTAGG [S2] : what is it?
Result: 28.4 nM

---

test system: Immunoglobulin E (IgE), human myeloma (human); assay: NECEEM (CE-LIF); conditions: 25 nM DNA and 25 nM IgE; alternative from both peaks, not adopted; 10 mM Tris-HCl pH 9.0, no added salt in CE-LIF/NECEEM; temperature not stated
measured metric: pKd
Numbers only, as −log10 of the molar value.

Problem: Reported pKd for GACTACCCGGGTATCTAATCCGACCATTTTTCGTCTCCTTTGTACGAGCAGTGTGCTCGACCTGCCGCCCGTAGG [S2] : what is it?
Result: 7.46

---

tested on: Immunoglobulin E (IgE), human myeloma (human); assay: NECEEM (CE-LIF); details: 25 nM DNA and 25 nM IgE; from broad peak (value adopted by authors); 10 mM Tris-HCl pH 9.0, no added salt in CE-LIF/NECEEM; temperature not stated
measured metric: Kd (nM)
Answers are plain numbers, in nM.

Problem: Reported Kd for GACTACCCGGGTATCTAATCCGACCATTTTTCGTCTCCTTTGTACGAGCAGTGTGCTCGACCTGCCGCCCGTAGG [S2] : what is it?
Result: 1.55
